Values from paper PMC6259134

Below, each entry is listed with its recorded π determined Ph.
# measurementProtocol: Lipophilicity determination by RP-HPLC (capacity factor k / log k, distributive π parameters)
# Assay type: physicochemical
# experimentalSetup: distributive parameter of phenyl substituents, calculated from log k
Hey, just send me the number, nothing else.

As a guide, the following entries are already answered.
- CC(C)(C)c1ncc(C(=O)Nc2ccc(Cl)c(Cl)c2)nc1Cl [Compound 16]: 0.51
- CC(C)(C)c1ncc(C(=O)Nc2c(Cl)cccc2Cl)nc1Cl [Compound 12]: 0.42
- O=C(Nc1ccc(Cl)c(Cl)c1)c1cncc(Cl)n1 [Compound 14]: 0.31

Noted for CC(C)(C)c1cnc(C(=O)Nc2c(Cl)cccc2Cl)cn1 [Compound 11] : its π determined Ph reads 0.34

Documented π determined Ph of CC(C)(C)c1ncc(C(=O)Nc2cccc(Cl)c2)nc1Cl [Compound 4] : 0.25

Lab note: measured π determined Ph of O=C(Nc1ccc(Cl)cc1)c1cncc(Cl)n1 [Compound 6] was 0.13

So, CC(C)(C)c1cnc(C(=O)Nc2ccc(Cl)c(Cl)c2)cn1 [Compound 15] ? Its π determined Ph was 0.40

# π determined Ph of O=C(Nc1c(Cl)cccc1Cl)c1cnccn1 [Compound 9] = 0.25

π determined Ph for O=C(Nc1cccc(Cl)c1)c1cnccn1 [Compound 1] is 0.08

The compound listed as O=C(Nc1ccc(Cl)c(Cl)c1)c1cnccn1 [Compound 13] shows π determined Ph equal to 0.30

---

# measurementProtocol: Lipophilicity determination by RP-HPLC (capacity factor k / log k, distributive π parameters)
# Assay type: physicochemical
# experimentalSetup: RP-HPLC, C18, MeOH 70%/H2O 30%, isocratic
# Protocol: The procedure was performed under isocratic conditions with methanol as an organic modifier in the mobile phase using an end-capped non-polar C18 stationary RP column. The results are shown in Table 1 and illustrated in Figure 2. […] The HPLC separation process was monitored by Empower™ 2 Chromatography Data Software, Waters 2009 (Waters Corp., Milford, MA, USA). […] Retention times (tR) were measured in minutes. […]
Known log k of a selection of compounds
When you answer, write just the number.

- O=C(Nc1c(Cl)cccc1Cl)c1cnccn1 [Compound 9]: 0.6656
- O=C(Nc1c(Cl)cccc1Cl)c1cncc(Cl)n1 [Compound 10]: 0.9456
- CC(C)(C)c1ncc(C(=O)Nc2ccc(Cl)cc2)nc1Cl [Compound 8]: 1.5015
- CC(C)(C)c1cnc(C(=O)Nc2c(Cl)cccc2Cl)cn1 [Compound 11]: 1.2802
- O=C(Nc1ccc(Cl)c(Cl)c1)c1cncc(Cl)n1 [Compound 14]: 0.9950

So for O=C(Nc1cccc(Cl)c1)c1cncc(Cl)n1 [Compound 2] , the logged log k turned out to be 0.7864

Quick note, log k for CC(C)(C)c1ncc(C(=O)Nc2c(Cl)cccc2Cl)nc1Cl [Compound 12] landed at 1.6631

---

# measurementProtocol: Lipophilicity determination by RP-HPLC (capacity factor k / log k, distributive π parameters)
# Assay type: physicochemical
# experimentalSetup: distributive parameter of phenyl substituents, calculated from log k
Items are presented alongside their recorded π determined Ph.
Form: value (number only, do not type unit).

Some solved cases for reference:
- O=C(Nc1cccc(Cl)c1)c1cncc(Cl)n1: 0.10
- CC(C)(C)c1cnc(C(=O)Nc2ccc(Cl)cc2)cn1: 0.16
- O=C(Nc1ccc(Cl)cc1)c1cnccn1: 0.09

# next compound below
Quick note, π determined Ph for CC(C)(C)c1ncc(C(=O)Nc2ccc(Cl)cc2)nc1Cl landed at 0.26

---

# measurementProtocol: Lipophilicity determination by RP-HPLC (capacity factor k / log k, distributive π parameters)
# Type: physicochemical
# experimentalSetup: RP-HPLC, C18, MeOH 70%/H2O 30%, isocratic
Quick reference for log k among some molecules
Number only, please.

Sample records with log k:
• CC(C)(C)c1cnc(C(=O)Nc2ccc(Cl)c(Cl)c2)cn1 = 1.3395
• O=C(Nc1ccc(Cl)cc1)c1cncc(Cl)n1 = 0.8185
• O=C(Nc1ccc(Cl)c(Cl)c1)c1cnccn1 = 0.6962
• CC(C)(C)c1cnc(C(=O)Nc2ccc(Cl)cc2)cn1 = 1.1043
• CC(C)(C)c1ncc(C(=O)Nc2ccc(Cl)c(Cl)c2)nc1Cl = 1.7563

API: the following record is the query input.
So, O=C(Nc1cccc(Cl)c1)c1cnccn1 ? Its log k was 0.4914

---

# measurementProtocol: Lipophilicity determination by RP-HPLC (capacity factor k / log k, distributive π parameters)
# Type: physicochemical
# experimentalSetup: RP-HPLC, C18, MeOH 70%/H2O 30%, isocratic
reportedEndpoint: log k

// below: answered compounds
- CC(C)(C)c1ncc(C(=O)Nc2cccc(Cl)c2)nc1Cl: 1.4896
- CC(C)(C)c1cnc(C(=O)Nc2cccc(Cl)c2)cn1: 1.0996

Please fill in: log k reported for O=C(Nc1ccc(Cl)cc1)c1cnccn1 = 0.4987
